Would you mind telling me the reported switch fluorescence ratio of each entry?
Test system: ATP;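 also: ATP exposure 15 min at 22 °C before imaging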
TEST: switch fluorescence ratio, 500 uM ATP over buffer (Cy3 cluster intensity, sum of 5 cycles each) (fold (ratio)); higher = stronger signal-on switching upon ATP binding; sequences stand for … in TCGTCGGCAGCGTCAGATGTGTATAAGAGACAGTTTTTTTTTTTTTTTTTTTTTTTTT…TC
TEST_PARAMETERS: aptamer strand: ATP DNA aptamer (quencher-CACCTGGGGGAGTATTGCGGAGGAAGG + anchor), 100 nM annealed; ATP concentration: 500 uM
Just the number.

Which switch fluorescence ratio is reported with ATP for this entry: `GGGGGAGTAC` ?
1.03

Lookup: switch fluorescence ratio / ATP / `ACGGCTGTTC`
1.01

Given the entry `TTGAGTGGGT` , what switch fluorescence ratio was observed with ATP?
0.99

Can you look up switch fluorescence ratio on ATP for `TTAAAAGAGG` ?
1.01

Under ATP: switch fluorescence ratio value of `GAATTAGGGA` ?
1.01

Record `CCCGCTAGTG` : what is its switch fluorescence ratio with ATP?
1.54

Write down the reported switch fluorescence ratio of `TTGGAAGGGT` , test system: ATP.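 Also: ATP exposure 15 min at 22 °C before imaging.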
1.01

Missing value: switch fluorescence ratio, ATP, entry `GTATTGCCAG` . Fill in?
0.995

Fill in the recorded switch fluorescence ratio for this sequence, with ATP as test system: `TGAGAGGATG`
0.99

Query the reported switch fluorescence ratio for ATP; item: `AACGGCGTGA`
1.08

What reported switch fluorescence ratio corresponds to `AAGTTGTACG` on ATP?
0.999

Record lookup: for ATP, what switch fluorescence ratio belongs to `CCTATTACA` ?
1.03

Form: Entry = `CGCTGACATT` | System = ATP | switch fluorescence ratio = ____;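 also: ATP exposure 15 min at 22 °C before imaging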
1.02

Entry `ATTTCCCTGT` , system ATP: what switch fluorescence ratio was measured?;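 also: ATP exposure 15 min at 22 °C before imaging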
1.01

Values compiled from the supplement of paper PMC10126150.
